Counter-ions that a name gives are not always drawn.
Measured Property: melting point

Compound: CN(C)CCNc1ccc(Cl)c(C(=O)NCC23CC4CC(CC(C4)C2)C3)c1
Endpoint Value: 215 °C
//
Compound: CSc1nc(C)ccc1C(=O)NCC12CC3CC(CC(C3)C1)C2
Endpoint Value: 160 to 161 °C
//
Compound: CN(C)CCCOc1ccc(Sc2ncccc2C(=O)NCC23CC4CC(CC(C4)C2)C3)cc1 (as salt: hydrochloride) [Example 48, dihydrochloride]
Endpoint Value: 177 to 178 °C
//
Compound: O=C(NCC12CC3CC(CC(C3)C1)C2)c1ccc2[nH]ccc2c1
Endpoint Value: 206 to 207 °C
//
Compound: CSc1ccc(Cl)c(C(=O)NCC23CC4CC(CC(C4)C2)C3)c1
Endpoint Value: 126 to 127 °C
//
Compound: O=C(NCC12CC3CC(CC(C3)C1)C2)c1cc([N+](=O)[O-])ccc1Cl
Endpoint Value: 178 °C
//
Compound: O=C(NCC12CC3CC(CC(C3)C1)C2)c1cc(Cl)cc(Cl)c1
Endpoint Value: 197 to 198 °C
//
Compound: O=C(NCC12CC3CC(CC(Cl)(C3)C1)C2)c1ccccc1Cl
Endpoint Value: 153 °C
//
Compound: O=C(NCC12CC3CC(CC(C3)C1)C2)c1ccccc1I
Endpoint Value: 194 to 195 °C
//
Compound: CN(C)c1ncccc1C(=O)NCC12CC3CC(CC(C3)C1)C2 (as salt: hydrochloride)
Endpoint Value: 204 to 205 °C
//
Compound: O=C(NCC12CC3CC(CC(C3)C1)C2)c1cccc(F)c1Cl
Endpoint Value: 149 to 151 °C
//
Compound: CN(C)CCNc1cccc(C(=O)NCC23CC4CC(CC(C4)C2)C3)c1Cl
Endpoint Value: 221 °C
//
Compound: O=C(NCC12CC3CC(CC(C3)C1)C2)c1cccc([N+](=O)[O-])c1Cl
Endpoint Value: 185 °C
//
Compound: O=C(NCC12CC3CC(CC(C3)C1)C2)c1cc(NCCNCCO)ccc1Cl (as salt: hydrochloride) [Example 71, dihydrochloride]
Endpoint Value: 143 °C (dec.)
//
Compound: Cc1ccc(Sc2ncccc2C(=O)NCC23CC4CC(CC(C4)C2)C3)cc1
Endpoint Value: 166 to 169 °C
//
Compound: O=C(NCC12CC3CC(CC(C3)C1)C2)c1cc(N2CC2)ccc1Cl
Endpoint Value: 154 to 155 °C
//
Compound: COc1ccc(Sc2ncccc2C(=O)NCC23CC4CC(CC(C4)C2)C3)cc1
Endpoint Value: 130 to 131 °C

---

Measured melting point of individual entries
Counter-ions that a name gives are not always drawn.

Compound: CC(C)(C)OC(=O)COc1ccccc1C(=O)NCC12CC3CC(CC(C3)C1)C2
melting point: 101 to 103 °C

Compound: N#Cc1ccccc1Sc1ccccc1C(=O)NCC12CC3CC(CC(C3)C1)C2
melting point: 62 to 65 °C

Compound: O=C(O)CCCOc1ccccc1C(=O)NCC12CC3CC(CC(C3)C1)C2
melting point: 109 to 113 °C

Compound: COc1cc(OC)c(C)c(C(=O)NCC23CC4CC(CC(C4)C2)C3)c1
melting point: 173 to 175 °C

Compound: Cc1c(N)cc(N)cc1C(=O)NCC12CC3CC(CC(C3)C1)C2
melting point: 220 °C (dec.)

Compound: O=C(NCC12CC3CC(CC(C3)C1)C2)c1c(Cl)cccc1Cl
melting point: 246 to 247 °C

Compound: O=C(NCC12CC3CC(CC(C3)C1)C2)c1cc(NCCNCC(O)c2ccccc2)ccc1Cl (centres unmarked)
melting point: 63 to 64 °C

Compound: CN(C)CCNc1ncccc1C(=O)NCC12CC3CC(CC(C3)C1)C2 (as salt: hydrochloride) [Example 32, dihydrochloride]
melting point: 258 to 260 °C

---

Entries annotated with measured melting point

Molecule: O=C(NCC12CC3CC(CC(C3)C1)C2)c1cc(F)ccc1Cl [Example 43]
melting point: 176 to 177 °C

Molecule: O=C(NCCC12CC3CC(CC(C3)C1)C2)c1ccccc1Cl [Example 72]
melting point: 125 to 127 °C

Molecule: O=C(NCC12CC3CC(CC(C3)C1)C2)c1ccccc1C(F)(F)F [Example 11]
melting point: 165 to 167 °C

Molecule: COc1cccc(OC)c1C(=O)NCC12CC3CC(CC(C3)C1)C2
melting point: 185 to 186 °C

Molecule: O=C(NCC12CC3CC(CC(C3)C1)C2)c1cccc(O)c1Cl [Example 59]
melting point: 234 to 235 °C

---

Where a name gives a salt, the structure may show the parent alone.

Compound: O=C(NCC12CC3CC(CC(C3)C1)C2)c1cccnc1N1CCCC1 (as salt: hydrochloride) [Example 36, dihydrochloride]
melting point: 157 to 158 °C
--
Compound: Cc1ccc(C)c(C(=O)NCC23CC4CC(CC(Cl)(C4)C2)C3)c1 [Example 78]
melting point: 155 °C
--
Compound: CN(C)CCSc1ccccc1C(=O)NCC12CC3CC(CC(C3)C1)C2 [Example 39]
melting point: 193 to 195 °C
--
Compound: O=C(NCC12CC3CC(CC(C3)C1)C2)c1ccccc1Cc1ccccc1 [Example 23]
melting point: 156 to 157 °C
--
Compound: COc1cc(OC)c(C)c(C(=O)NCC23CC4CC(CC(Cl)(C4)C2)C3)c1 [Example 79]
melting point: 173 to 175 °C
--
Compound: O=C(O)COc1ccc(Sc2ncccc2C(=O)NCC23CC4CC(CC(C4)C2)C3)cc1 [Example 47]
melting point: 185 to 186 °C
--
Compound: O=C(NCC12CC3CC(CC(C3)C1)C2)c1cccnc1Sc1cc(O)ccc1O [Example 44]
melting point: 108 to 110 °C
--
Compound: O=C(NCC12CC3CC(CC(C3)C1)C2)c1cc(O)ccc1Cl [Example 51]
melting point: 263 to 264 °C

---

Entries and their melting point values follow.
Where a name gives a salt, the structure may show the parent alone.
Measured Property: melting point

Compound: CSc1ccccc1C(=O)NCC12CC3CC(CC(C3)C1)C2
Endpoint Value: 171 to 172 °C

Compound: C[S+]([O-])c1ncccc1C(=O)NCC12CC3CC(CC(C3)C1)C2 (stereo not drawn)
Endpoint Value: 214 °C

Compound: O=C(NCC12CC3CC(CC(C3)C1)C2)c1cccnc1NCCN1CCCC1 (as salt: hydrochloride) [Example 33, dihydrochloride]
Endpoint Value: 266 to 268 °C

Compound: O=C(NCC12CC3CC(CC(C3)C1)C2)c1c(F)cccc1C(F)(F)F
Endpoint Value: 151 to 153 °C

Compound: COc1cc(OC)cc(C(=O)NCC23CC4CC(CC(C4)C2)C3)c1
Endpoint Value: 130 to 133 °C

Compound: CNc1ncccc1C(=O)NCC12CC3CC(CC(C3)C1)C2 (as salt: hydrochloride) [Example 34, dihydrochloride]
Endpoint Value: 160 to 162 °C

Compound: NCCSc1ncccc1C(=O)NCC12CC3CC(CC(C3)C1)C2 (as salt: trifluoroacetate)
Endpoint Value: 184 °C

Compound: Nc1cccc(Cl)c1C(=O)NCCC12CC3CC(CC(C3)C1)C2
Endpoint Value: 132 to 134 °C

Compound: Nc1ccc(Cl)c(C(=O)NCCC23CC4CC(CC(C4)C2)C3)c1
Endpoint Value: 147 to 149 °C

Compound: O=C(NCC12CC3CC(CC(C3)C1)C2)c1ccc(Cl)cc1Cl
Endpoint Value: 180 to 182 °C

Compound: O=C(NCC12CC3CC(CC(C3)C1)C2)c1cccc(NCCNCCc2c[nH]cn2)c1Cl
Endpoint Value: 86 to 87 °C

Compound: COc1ccc(OC)c(Sc2ncccc2C(=O)NCC23CC4CC(CC(C4)C2)C3)c1
Endpoint Value: 135 to 136 °C

Compound: Cc1ccc(C)c(C(=O)NCC23CC4CC(CC(C4)C2)C3)c1
Endpoint Value: 153 to 154 °C

Compound: O=C(NCC12CC3CC(CC(C3)C1)C2)c1cc(I)ccc1Cl
Endpoint Value: 161.4 to 161.5 °C

Compound: CNc1ccc(Cl)c(C(=O)NCC23CC4CC(CC(C4)C2)C3)c1
Endpoint Value: 163 to 164 °C

Compound: O=C(NCC12CC3CC(CC(C3)C1)C2)c1cc(NCCN2CCCCC2)ccc1Cl (as salt: hydrochloride)
Endpoint Value: 142 to 143 °C (dec.)

Compound: O=C(NCC12CC3CC(CC(C3)C1)C2)c1ccccc1[N+](=O)[O-]
Endpoint Value: > 250 °C

Compound: CN(C)CCOc1ccccc1C(=O)NCC12CC3CC(CC(C3)C1)C2.Cl
Endpoint Value: 181 to 183 °C

---

Entry Smiles: O=C(NCCC12CC3CC(CC(C3)C1)C2)c1cccc(Cl)c1Cl
melting point: 158 to 159 °C

Entry Smiles: CN(C)CCOc1ccc(Cl)c(C(=O)NCC23CC4CC(CC(C4)C2)C3)c1
melting point: 144 to 147 °C

Entry Smiles: O=C(NCC12CC3CC(CC(C3)C1)C2)c1cc(NCCCl)ccc1Cl
melting point: 144 to 145 °C

Entry Smiles: O=C(NCC12CC3CC(CC(C3)C1)C2)c1c(F)cccc1F
melting point: 162 to 163 °C

Entry Smiles: O=C(NCC12CC3CC(CC(C3)C1)C2)c1cccc(Cl)c1
melting point: 125 to 126 °C

Entry Smiles: Nc1cccc(Cl)c1C(=O)NCC12CC3CC(CC(C3)C1)C2
melting point: 182 to 183 °C

Entry Smiles: O=C(O)CSc1ncccc1C(=O)NCC12CC3CC(CC(C3)C1)C2
melting point: 147 to 150 °C

Entry Smiles: Cc1ccc(C)c(C(=O)NCCC23CC4CC(CC(C4)C2)C3)c1
melting point: 153 °C

Entry Smiles: O=C(NCC12CC3CC(CC(C3)C1)C2)c1cc(Cl)ccc1Cl
melting point: 161 to 162 °C
